- tested.system: ECF27_1331
readout.name: fold repression
Answers are plain numbers.

Field: example entries. Status: answers known.
| binder | data.value |
| --- | --- |
| AS03_1244 (protein) MKQFDPDVNIRPKEDSIRHYSVPDDYFASFTDKLMAQIPAVKEENTVVVPSVALWPKLRPLLYLAASFLLMIGMFKAFSLFGVGSDTGRTTSTSAGLVALDHGDTRWSEDTDYRDFLHDNCAETVSDEWVLTDFSE | 2.14 |
| AS37_2513 (protein) MSSAPATKEEVDFALKVRRALDERAASLPDATTDRLAAARRAALARKKPDAAIVLVPALAGSAGTLELRPPGEPRKSLARRLARAWPLALLLAGLIGIAYWEDMQRTAELADIDAAMLSDNLPLTAYLDHGFNAYLSHTH | 6.45 |
| AS14_1324 (protein) MSGSRPEPEGHLAEQHLGDRLSALVDGELGHDARERVLAHVATCPKCKAEVDAQRRLKNVFAEAAPPAPSESFLARLQGLPGGGDSDGGGSPFSGLPGGFGASAASGVFGPRRDERFEFDYVPAGSHTPVLPSATSGRGFRIHEVGRHESDRSASRGLRFAFAAAGAVSLAAIALGGVTLGTPDTTTEARGSGSGSNVTPLRTPGSAAATGSESQRRRTAGPLLGQGQRALGDLPVASTTASAPLLPGMPAPAGGDARQQAVRALTTPVTAGAAAMSPLIRPLEAVPPLSLSSWSAAPEVRPPGLLAAPDPAPSPYPAASPAASSSPLR | 8.27 |
| AS15_436 (protein) MAQSTEPKASPQEATAKGGDNTKGKSRKELQQQIDENLRRVYEEALVQEVPDRFAMLLDQLRQKGTGK | 4.82 |
| AS01_3473 (protein) MSNYDNAELLALWLEGKLTPKQRDEFEQRCIQDSQFAEQVDAAAMVKIGADDYSSSEVPQWNKAATFEPQQANNSGSWLSGVSLVTSALAIVLVLTGTQVTTSEGELRIRFGSGQSEQALVKLVDSKLDAFKQNQQDAFTLYAQTLQQQQSESASQLTNYLLSSSRKERREDFAELIKFVNQQRSDDQLFYARQLNQLQQDVYHDATGVALESIQQ | 3.09 |

Note: attention shifts to another entry.
Query :: Data request, read-out fold repression, for AS27_1331 (protein) MSAADKDPDKHSADADPPLTVELLADLQAGLLDDATAARIRSRVRSDPQAQQILRALNRVRRDVAAMGADPAWGPAARPAVVDSISAALRSARPNSSPGAAHAARPHVHPVRMIAGAAGLCAVATAIGVGAVVDAPPPAPSAPTTAQHITVSKPAPVIPLSRPQVLDLLHHTPDYGPPGGPLGDPSRRTSCLSGLGYPASTPVLGAQPIDIDARPAVLLVIPADTPDKLAVFAVAPHCSAADTGLLASTVVPRA
Result :: 3.32
